Assay: yeast display, Sf9 membrane polyspecificity reagent, FACS + sequencing; frameworks hold sequencing errors
test.readout: polyreactivity (PSR sort gate)

Solved entries (count: 8):
- QVQIVESGGGLFQAGGSLRLSCAASGLIFYSYAMGWYRQAPWKERELVAAISSGGGSTYYADSVKGRFTISRDNAKNTVYLQLNSLKPEDTAVYYCNRLYKYRTPDYDHWGQGTQVTVSS: high polyreactivity
- QVQLVESGGGLVQAGGSLRLSCDASGSIFYPYAMGWYRQAPGKERELVASISWSGGSTRYADSVKGRFTISRDHAKNTVYLQMNSLKPEDTAVYYCAARYILSKYGSGVRYYYWGQGTQVTVSS: high polyreactivity
- QVQLVESGGGLVQAGGSLRLSCAASGSIFTFYAMGWYRQAPGKERELVAAISKGGDRTYYADSVKGRFTISRDNAKNTVYLQMNSLIPEDTAVYYCARLVRPGRFGDGDYWGQGTQVTVSS: low polyreactivity
- QFQLVDSGGSLVQAGSSLPLSCPASGRTFPYNVMGWYRQAPGKERELFASIDGSGGSTYYADSVKGRFTISRDYAKNTVYLQMNSLNPVDTAVYYCAAVYYQSGNYWYGYLGQSPYDYWGLGTQVTVSS: low polyreactivity
- QVQLVESGGGLVQAGGSLRLSCAASGRTFNQYAMGWYRQAPGKVRELVAAISRPTGRTYYADSVKGRFTISRDNAKNTVYLQMNSLKPEDTAVYYCAKADNRSPVDNGFDYWGQVTQVTVSS: high polyreactivity
- QVQLVESGGGLVQAGGSLRLSCAASGYIFLRNAMGWSRQAPGKERELVASISSDDTSTHYADSVKGRFTISRDNAKNTVYLQMNSLKPEDTAVYYCAARNTPAYIDYNYWGQGTQVTVSS: low polyreactivity
- QVQHVESGGGLVQAGGTLRLSSAASGSTYRWYAMGSYRQAPGKERELVAAITFRGGRTYYADSVKGRFTISRDNAKNTVYLQMNSLKPEDTAVYYFNAVTYSSPYRFDYWGQGTQVTVSS: low polyreactivity
- QVQLVESGGGLVQAGGSLRLSCAASGRTSILYAMGWYRQAPGKERELVATIYSGGRTYYADSVKGRFTISRDNAKNTVYLQMNSLKPEDTAVYYCAARPNATPRGQTKHYYWGQGTQVTVSS: high polyreactivity

In: Returns the measured polyreactivity (PSR sort gate) for the input sequence. Input: `QVQLVESGGALVQAGGSLRLSCAASGRTFWRNTMGWYRQAPGKEREFVAAITFSGVRTYYADSVKGRFTISRDNAKNTVYLQMNSLKPQDTAVYYCAKSRQYIGGFDYWGQGTQVTVSS`
Out: high polyreactivity

In: And for `QVQLVESGGGLVQAGGSLRLSCAASGRTFVGYAMGWYRQAPGKERELVAAISTSGGRTYYADSVKGRFTISRDNEKYTVYLQMNSLKPEDTAVYYCAAGFRASIGYVTEYYWGQGTQVTVTS` ?
Out: high polyreactivity

In: And for `QVQLVESGGGLVQAGGSLRLSCAASGLIFSNYAMGWYRQAPGKERELVAAITRTATTKYADSVKGRFTISRDNAKNTVYLQMNSLKPEDSAVYYCAARSYHDRYNSWTDRYGFWGQGTQVTVSS` ?
Out: high polyreactivity

====

Experiment: yeast display, Sf9 membrane polyspecificity reagent, FACS + sequencing; frameworks hold sequencing errors
test.readout: polyreactivity (PSR sort gate)

• QVQLVESGGGLVQAGGSLRLSCAASGSIFGYYVMGWYRQAPGKERELVAAITRSGSTYYADSVKGRFTISRDNAKNTVYLQMNSLKPEDTAVYYCAADGSYYWYPHTTYDYWGQGTQVTVSS = low polyreactivity
• QVQLVESGGGLVQAGGSLRLSCAASGSIFVYYTMGWYRQAPGKERELVAAISISGTSTYYADSVKGRFTNSRDNAKNTVYLQMNSLKPEDTAVYYCAADTYYGEDYWGQGTQVTVSS = low polyreactivity
• QVQQQESGGGLVQAGGSLRLSCAASGYISVVIGMGWYRQSPGKERELVASIAYGAITYYTDSVKGRFTISRDYAKNTEYLQMNSLKAEDTAVYYCAADKPPLAYHWYWGQGTQATVSS = high polyreactivity
• QVQLVESGGGLVQAGGSLRLSCAASGSTFPYNTMGSYIQAPGKESELVATIRSRGDSTYFADSVKGRFTISRDNAKNTVYFQMNSLKPEDTAFYYCNADPRTLWWSRPYYSWGQGTQVTVSS = high polyreactivity
• QVQLVESGGGLVQAGGSLRLSCAASGRTIKYYAMGWYRQAPGKERELVAVISWSGGSTYYADSVKGRFTISRDNAKNTVYLQMNSLKPEDTAVYYCNAVHQYRRRYNYWGQGTQVTVSS = high polyreactivity

In: Returns the measured polyreactivity (PSR sort gate) for the input sequence. Input: `QVQLVESGGGLVQAGGSLRLSCAASGGIFFLYAMGWYRQAPGKETELVAAIRQDGGSTYYADSVKGRFTISRDNAKNTVYLQMNSLKPEDTAVYYCNAGYVKTGLEYYYWGQGPQVTVSS`
Out: low polyreactivity

In: And for `QVQLVDSGGALVQAGGSLRISCAASGYIFSYKAMGWYRQAPGKERELVAAITSGGSTNYADSVKGRFTISRDNAKNTVYLQMKSLKPEDTAVYYCAAERGDTAYRKYDYWGQGTQVTVSS` ?
Out: low polyreactivity

In: And for `QVQLVESGGGLVQAGGSLRLSCAASGSTFGIYARGWYIQAPGKEWDLVAAITWIGSDTYYADSVKGRFTISRDNAKNTVYLQMISLKPEDTAVYYCNAVKLLGTRGYGYWGQGTQVTVSS` ?
Out: high polyreactivity

In: And for `QVQGVESGGGLVQAGGSLRLSCAAAGFTFGYYAMGWYRQAPGTERELVAGISWGGTRTYYADSVKGRFTISRDNAKNTVYLQLNSLKPEDTAVYYCAAESILGYDYWGQGTQVTVSS` ?
Out: high polyreactivity

In: And for `QVQLVESGGGLVQAGGSLRLSCAASGRTFRSYAMGWYRQAPGKERELVAAITRTGSTYYADSVKGRFTISRDNAKNTVYLQMNSLKPEDTAVYYCAARFVYGYDYWGQGTEVTVSS` ?
Out: high polyreactivity

In: And for `QVQLVESGGGLVQAGGSLRLTCAASGSILYYNAMGWYRQAPGKEREFVAAISDSGSSTYYADSVKGRFTISRDNAKNTVYLQMNSLKPEDTAVYYCNAYQGDKYDSWGQGTQVTVSS` ?
Out: low polyreactivity

Attribution: the nanobody polyreactivity screen of Harvey et al. (2022)
